I'd appreciate it if you could supply CMC values for the items below.
# method-summary: Critical micelle concentration (CMC) by Wilhelmy plate method, K100C Force Tensiometer
# Assay type: physicochemical
# run-conditions: critical micelle concentration of the protonated or cationic form; Wilhelmy plate method, 25° C., pH 3
# Protocol: As a parameter for the surfactant properties of the novel amine-N-oxide compounds, as usual, the critical micelle concentration (CMC), i.e. the concentration of the protonated or cationic form of the surfactants at which micelles can form was used and was determined using a K100C Force Tensiometer from Krüss Scientific according to the Wilhelmy plate method at 25° C. and pH 3. For comparison, dodecyldimethylamine N-oxide (“C1”) was measured under the same conditions.
Numbers only, in mmol/L.

Here is how some compounds turned out for CMC.
In [3]: df
Out[3]:
                                   compound  result_value
0  CCCCCCCCCCCCOc1c(C[N+](C)(C)[O-])cc(CC)cc1C[N+](C)(C)[O-]           190
1  CCCCCCCCCCCCCCCCOc1c(C[N+](C)(C)[O-])cc(CC)cc1OC           4.0

Give me CMC for each of these compounds, listed below.
1. CCCCCCCCCCCCOc1c(C[N+](C)(C)[O-])cc(CC)cc1OC
2. CCCCCCCCCCCCCCCCOc1c(C[N+](C)(C)[O-])cc(CC)cc1C[N+](C)(C)[O-]
3. CCCCCCCCCCCCCCCCCCOc1c(C[N+](C)(C)[O-])cc(CC)cc1C[N+](C)(C)[O-]

Key:
[89, 75, 29]

Data credit: patent US20240383840A1
